# Tested on: RARg homodimer (NR concentration 270 nM)
# assay_summary: PBM binding z-score (relative to random genomic background probes); higher = stronger binding; sequences stand for … in GC…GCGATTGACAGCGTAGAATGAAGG
Class (by PBM binding z-score) -- lower: < 2; middle: ≥ 2 and < 4; upper: ≥ 4

The examples below pair each entry with its known result.
chain=CGAACTAGGTCACAAGGACAGTGAAGAGGTTGGA category=upper
chain=CTATGTAGGTTAAGGTGGTCATTCAGTTTGAAAG category=lower
chain=AGTCGGAGGACAAAGGTCAGAGCTACGCCAGTGA category=upper
chain=CCGAGTAGGTTACGAGGGCGCATTCAGTGCGAAT category=lower
chain=CGAACTAAGTCATCCAGGACAGTGAATACATTGA category=lower
chain=CGTCAAAGTTCTAGGTAACGTAACAGAAAGCAGC category=lower
chain=GGAACTAGGGCAAAGTTGATAGCATCTGTCGACG category=lower
chain=ATATGTAGGTTAGGGTCATTGAGAAAGTAGGGAA category=middle

Input GATACAGGGTGAAGGCCAGAGTACGCGTATTGAT ; output its category
lower

Looking at CAAGCTAGGTCAAGAGGTCAAAGTCCGCTTCCCG , which class would you pick?
upper

###

# Tested on: LXRb:RXRa (NR concentration 270 nM, RXRa partner concentration 90 nM)
# assay_summary: PBM binding z-score (relative to random genomic background probes); higher = stronger binding; sequences stand for … in GC…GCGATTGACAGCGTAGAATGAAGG
Hi all, reminder that labels come from PBM binding z-score, split as low = under 2, medium = from 2 up to 5, high = 5 and over

chain=ATATGTAGGTTAGGGTCATTCTGAAAGTAGGGAA category=medium
chain=ACTATCAGGCCAAGGGTCACTCAAGATTAGTCCG category=medium
chain=CAGAGTAGGTTACGAGGGGGCATTCAGTGCGAAT category=high

Using the reported PBM binding z-score, which band applies to CGAACTAGATCAAAGGACAGTGAAAGGCGACGTA ?
low

Sort CCTGGCAGGCCAGGGTCACTCAAGCATTTCGCTT into one of the categories.
medium

Category of AATACAGGGTCACTAGGCCCGAGTAGGTACGAAT :
medium

Class label required: TGACTGAGGTTAAAGATCAGGGAACGTGGCGTCG
low

Band for the recorded PBM binding z-score of TGGAGTAGGTTACGGGGGCATTCAGGGATGAAGA ?
high

Which class does ATATGTAGGTTCCATCCGGGTCATTCAGGCTATG fall in?
low

Bin? CTATGTAGGTTAAGGGGGTCATTCATTTTGAAAG
high

###

I'd be grateful if you could share measured PBM binding z-score for these entries.
# Test system: PXR homodimer (NR concentration 270 nM)
# assay_summary: PBM binding z-score (relative to random genomic background probes); higher = stronger binding; sequences stand for … in GC…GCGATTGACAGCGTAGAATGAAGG

Illustrative cases are given below, each with its answer.
chain=CGTCAAAGTTCATGGTAACGTAACAGAAAGCAGC assay_endpoint="PBM binding z-score" reading=2.84
chain=CAAACTAGGTCACGAAAGGTCAAAGCCGAATGAC assay_endpoint="PBM binding z-score" reading=3.03
chain=CGCACTAGGTCACCAGGACAGTGAAGAGGTTGGA assay_endpoint="PBM binding z-score" reading=0.413
chain=CCTACTGGGCCAAAGGCCATTGATTCCAATGCTC assay_endpoint="PBM binding z-score" reading=-0.371
chain=CGTCCAAGGTCACAGGAGGTCAGTGAAGACAGAT assay_endpoint="PBM binding z-score" reading=3.92
chain=CCCCGGAGGACAGAAGGTCAGAGCTGTCCGCTTT assay_endpoint="PBM binding z-score" reading=-0.156
chain=TAGCCTAGGTCATTCAGGGGCCAGTATGGAAAGC assay_endpoint="PBM binding z-score" reading=-0.398
chain=CGAACTAGGTCACGAGGACAGTGAAGAGGTTGGA assay_endpoint="PBM binding z-score" reading=0.184
chain=CGTCAAAGTTCAACTAAGTTAACGTAAAGCACGC assay_endpoint="PBM binding z-score" reading=5.97
chain=ATATGTAGGTTAGGTTCATTCAGAAAGTAGGGAA assay_endpoint="PBM binding z-score" reading=2.26

Hi! Can you tell me PBM binding z-score for each of these sequences?
1. CCGACTGGGCCATTCAGAGGTCATTGATCATATG
2. CCTACTGGGCCAAAGGACATTGATTCCAATGCTC

1. 2.75
2. -0.554

###

# System: THRa:RXRa (NR concentration 90 nM, RXRa partner concentration 90 nM)
# assay_summary: PBM binding z-score (relative to random genomic background probes); higher = stronger binding; sequences stand for … in GC…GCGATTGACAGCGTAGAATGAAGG
Record form. Attribute: PBM binding z-score. Fill in for each entry.
Answers are plain numbers.

chain=CGCACTAGGTCAAAGGACAGTGAAAGGCGACGTA assay_endpoint="PBM binding z-score" reading=2.68
chain=GATACACGGTCAAGGCCAGAGTACGCGTATTGAT assay_endpoint="PBM binding z-score" reading=0.429
chain=CGAACTAGGACATCCAGGACAGTGAATACATTGA assay_endpoint="PBM binding z-score" reading=1.78
chain=CTAACTAGGTCACGAAAGGTCAAAGTCGAATGAC assay_endpoint="PBM binding z-score" reading=5.08
chain=ATATGTAGGTTAGGGTTATTCAGAAAGTAGGGAA assay_endpoint="PBM binding z-score" reading=2.45
chain=TCTACTTGGTCACGGAGGTCACACACGACGGGTA assay_endpoint="PBM binding z-score" reading=3.6
chain=ATATGTAGGTTAGCGTCATTCAGAAAGTAGGGAA assay_endpoint="PBM binding z-score" reading=0.15
chain=CCTACTGGGCCAAAAAGGTAATTGATGCCGATAA assay_endpoint="PBM binding z-score" reading=0.109

Items follow; give PBM binding z-score for each.
1. CGAACTAGGTCATCAGGACAGTGAAGAGGTTGGA
2. ATATGTAGGTTAGGGTCAATCAGAAAGTAGGGAA

3.38
3.83

Provide reported PBM binding z-score for each item, in the same order as listed.
1. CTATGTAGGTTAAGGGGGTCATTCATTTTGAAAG
2. CCGAGTAGGTTACGGGGGGGCATTCAGTGCGAAT
3. CGAACTAGGTCACCAAGACAGTGAAGAGGTTGGA
4. CTTACTGGGCCAAAGGTCATTGATTCCAATGCTC
5. AGTGAAAGTTCAGGACGAGGTAACGTAAAGCACG

1. 3.64
2. 4.4
3. 2.74
4. 3.36
5. 3.93

###

# System: PPARg:RXRa 270nM:90nM, anti-RXR (NR concentration 270 nM, RXRa partner concentration 90 nM)
# assay_summary: PBM binding z-score (relative to random genomic background probes); higher = stronger binding; sequences stand for … in GC…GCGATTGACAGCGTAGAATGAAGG
For each record, write down the corresponding PBM binding z-score.
Numbers only.

# annotated cases, reported PBM binding z-score shown
chain=CCGAGTAGGTTACGAGGGGGCATTCTGTGCGAAT reading=3.46
chain=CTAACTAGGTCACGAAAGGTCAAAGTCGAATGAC reading=8.24
chain=CGAACTAGGTCAAAGGAGAGTGAAAGGCGACGTA reading=7.8
chain=CTATGTAAGTTAAGGGGGTCATTCAGTTTGAAAG reading=5.21
chain=ATATGTAGTTTAGGGTCATTCAGAAAGTAGGGAA reading=3.61

Provide PBM binding z-score for all items below, preserving their order.
1. CGGACTAGGTCAAAGGACAGTGAAAGGCGACGTA
2. ATATGTAGGTTAGGGTCATTCCGAAAGTAGGGAA
3. CTATGTACGTTAAGGGGGTCATTCAGTTTGAAAG
4. CGAACTAGGTCAGAACAGGACAGTTAAGGATGAT

1: 8.4; 2: 6.58; 3: 5.19; 4: 4.49

###

# Test system: PPARg DBDmut:RXRa IVT, anti-PPARg (DBD mutation: PPARg1 K132A/R137A, NR concentration 270 nM, RXRa partner concentration 90 nM)
# assay_summary: PBM binding z-score (relative to random genomic background probes); higher = stronger binding; sequences stand for … in GC…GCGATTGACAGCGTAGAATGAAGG
assay_endpoint: PBM binding z-score
Numbers only.

Use these answered entries as a reference point.
chain=CCTACAGGGCCAAGGTCATTGATCAGTCAAAGCA reading=-0.788
chain=TCTCGGAGGACACGAAAAGTCAGAGCTCGACATC reading=-0.679
chain=ATCGGAAGGTCGAGGTGAGTATAGAGAAAGGGAA reading=0.811
chain=ATATGTAGGTTACATGCGGGTCATTCAGGCTATG reading=2.78
chain=ATATGTAGGTTACGTCCGGGTCATTCAGGCTATG reading=4.19

Report PBM binding z-score for each item below.
1. TCATATAGGTAAAAGGTCAAAGTCGGTGTGGTAA
2. ATCGAAAGGTCGAAAGTGAGTATACCCACCCGAA
3. ATATGTAGGTTAGCGGGGGTCATTCAGACTAGGC
4. ACTAGCAGGCCAAGAGTCACTCAAGATTAGTCCG
5. GCTTCCGGGTCAAAGGTTATAGCATGAATAGAAT
6. ATCTCTAGGTGAAAGTTCAGTGAATCCCGAGGAT
7. TCTCGGATGACACGAAAGGTCAGAGCTCGACATC

1: 2.69; 2: 1.11; 3: 5.31; 4: -0.175; 5: 2.92; 6: 1.5; 7: 0.619

Hey, quick one: what's PBM binding z-score for each of these?
1. CGTCCAAGGTCAATGCAAGGTCAGTGAAAGCATT
2. GCTCGGAGGACAAGGTCACAGCTTTGTCCGTAGA
3. CATACTAGGTCAAAGGTCAAAGTCGAGCCAACCA
4. AATACAGGGTCCTCGTAGGCCAGAGTACGCACAG
5. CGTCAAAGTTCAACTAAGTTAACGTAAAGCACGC

1. 0.246
2. 0.822
3. 2.89
4. -0.242
5. 1.94
